# run_parameters: in sulfolane, 345.15 K

[
  {
    "query_smiles": "O=C(O)c1ccccc1",
    "solubility (mole fraction)": 0.33
  }
]

###

# run_parameters: in diethylene glycol, 319.95 K
readout: solubility (mole fraction)

[
  {
    "query_smiles": "O=C(O)c1ccccc1",
    "readout": "solubility (mole fraction)",
    "measured_number": 0.269
  }
]

###

# run_parameters: in sulfolane, 312.15 K
readout: solubility (mole fraction)

[
  {
    "query_smiles": "O=C(O)c1ccccc1",
    "measured_number": 0.132
  }
]

###

# run_parameters: in m-xylene, 336.15 K

[
  {
    "query_smiles": "O=C(O)c1ccccc1",
    "solubility (mole fraction)": 0.257
  }
]

###

# run_parameters: in DMAc, 293.35 K
readout: solubility (mole fraction)

[
  {
    "query_smiles": "O=C(O)c1ccccc1",
    "readout": "solubility (mole fraction)",
    "result": 0.472
  }
]

###

# run_parameters: in 2-(2-butoxyethoxy)ethanol, 296.15 K

[
  {
    "query_smiles": "O=C(O)c1ccccc1",
    "solubility (mole fraction)": 0.285
  }
]

###

# run_parameters: in p-xylene, 311.45 K

[
  {
    "query_smiles": "O=C(O)c1ccccc1",
    "solubility (mole fraction)": 0.115
  }
]

###

# run_parameters: in DMAc, 318.15 K
readout: solubility (mole fraction)

[
  {
    "query_smiles": "O=C(O)c1ccccc1",
    "measured_number": 0.505
  }
]

###

# run_parameters: in p-xylene, 323.15 K

[
  {
    "query_smiles": "O=C(O)c1ccccc1",
    "solubility (mole fraction)": 0.169
  }
]

###

# run_parameters: in p-xylene, 299.65 K
readout: solubility (mole fraction)

[
  {
    "query_smiles": "O=C(O)c1ccccc1",
    "readout": "solubility (mole fraction)",
    "measured_number": 0.0743
  }
]

###

# run_parameters: in o-xylene, 325.15 K

[
  {
    "query_smiles": "O=C(O)c1ccccc1",
    "solubility (mole fraction)": 0.189
  }
]

###

# run_parameters: in ethylene glycol, 330.65 K

[
  {
    "query_smiles": "O=C(O)c1ccccc1",
    "solubility (mole fraction)": 0.185
  }
]

###

# run_parameters: in diethylene glycol, 327.95 K

[
  {
    "query_smiles": "O=C(O)c1ccccc1",
    "solubility (mole fraction)": 0.336
  }
]

###

# run_parameters: in decalin, 311.05 K

[
  {
    "query_smiles": "O=C(O)c1ccccc1",
    "solubility (mole fraction)": 0.0249
  }
]

###

# run_parameters: in o-xylene, 332.15 K

[
  {
    "query_smiles": "O=C(O)c1ccccc1",
    "solubility (mole fraction)": 0.218
  }
]

###

# run_parameters: in DMAc, 308.65 K

[
  {
    "query_smiles": "O=C(O)c1ccccc1",
    "solubility (mole fraction)": 0.483
  }
]

###

# run_parameters: in diethylene glycol, 332.25 K

[
  {
    "query_smiles": "O=C(O)c1ccccc1",
    "solubility (mole fraction)": 0.367
  }
]

###

# run_parameters: in cyclohexanone, 307.95 K
readout: solubility (mole fraction)

[
  {
    "query_smiles": "O=C(O)c1ccccc1",
    "measured_number": 0.265
  }
]
